- Tested on: SF-295 CNS
- Assay Info: NCI-60 one-dose screen, 48 h
- Test Context: 10 µM unless noted
The panel holds about 83,000 compounds, 20% with a hit somewhere; the sample as a whole holds those more often. Activity calls are given as the source filed them. Rule for the calls: active = growth percent below 10; inactive = the rest.
The reply should be one of these categories: active, inactive

Answered examples (8):
>>> class_name("C=C(C)[C@@H]1CC[C@]2(C(N)=O)CC[C@]3(C)[C@H](CC[C@@H]4[C@@]5(C)CC[C@H](O)C(C)(C)[C@@H]5CC[C@]43C)[C@@H]12")
"active"
>>> class_name("CC1(C)CC[C@]23CC[C@]4(C)[C@H](CC[C@@H]5[C@@]6(C)C/C(=C/c7ccncc7)C(=O)C(C)(C)[C@@H]6CC[C@]54C)[C@H]2[C@H]1OC3=O")
"inactive"
>>> class_name("O=C1CC(C(F)(F)F)Cc2nc3ccc(Br)cc3cc21 (centres undefined)")
"inactive"
>>> class_name("CC1(C)CC[C@]2(C(=O)OC(=O)[C@]34CCC(C)(C)C[C@@H]3C3=CC[C@@H]5[C@@]6(C)CCC(=O)C(C)(C)[C@@H]6CC[C@@]5(C)[C@]3(C)CC4)CC[C@]3(C)C(=CC[C@@H]4[C@@]5(C)CCC(=O)C(C)(C)[C@@H]5CC[C@]43C)[C@H]2C1")
"inactive"
>>> class_name("CC1Cc2c(Cl)ncnc2N(C)c2ccc(Cl)cc21 (centres undefined)")
"inactive"
>>> class_name("CCC(C)[C@H](NC(=O)NC(=O)NC(=O)CI)C(=O)OC (some centres undefined)")
"inactive"
>>> class_name("C=CCCCCOc1ccccc1-c1cnc(OCCCCC=C)n1C")
"inactive"
>>> class_name("c1ccc(-c2nnc(-c3c[nH]c4ncccc34)s2)cc1")
"inactive"

Below: the item to evaluate.
### Prompt Look up the recorded call for `CC(C)[C@H]1COC(=O)N1[C@@H]1C(=O)N([C@@H](CCC(=O)N2CCN(C3CCCC3)CC2)C(=O)N[C@@H]2CCCc3ccccc32)[C@@H]1/C=C/c1cccc(Cl)c1` in this test.
### Response inactive
